Cited source: the supplement of paper PMC12645437

# EXPERIMENTAL_TARGET: T1, CRBN, Q96SW2;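 further: pooled lentiviral library of zinc finger degron-EGFP fusions in mCherry-positive Jurkat cells, FACS-sorted after compound exposure, with degron abundance counted by next-generation sequencing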
# T1 chain: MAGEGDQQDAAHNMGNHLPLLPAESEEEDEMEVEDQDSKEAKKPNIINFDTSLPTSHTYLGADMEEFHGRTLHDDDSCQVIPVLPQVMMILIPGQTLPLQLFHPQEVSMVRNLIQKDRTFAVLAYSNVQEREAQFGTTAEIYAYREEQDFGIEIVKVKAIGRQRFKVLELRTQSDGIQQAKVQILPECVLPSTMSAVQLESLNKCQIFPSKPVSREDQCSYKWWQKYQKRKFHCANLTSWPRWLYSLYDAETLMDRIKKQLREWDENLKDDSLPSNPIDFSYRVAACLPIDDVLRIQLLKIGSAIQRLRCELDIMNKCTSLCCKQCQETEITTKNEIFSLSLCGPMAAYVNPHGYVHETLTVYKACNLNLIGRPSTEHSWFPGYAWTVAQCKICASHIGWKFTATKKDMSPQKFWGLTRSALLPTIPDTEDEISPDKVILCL
# PROTOCOL_TEXT: log2 fold change of degron read counts, EGFP-low vs EGFP+ sorted cells (limma voom), compound-induced degradation; higher = more compound-induced degradation of the degron-EGFP fusion; degrons are variants of IKZF1/3 zinc finger 2; compound dose not given here
# CONDITION_NOTES: Jurkat; 18 h; compound: thalidomide
Whole data set: some 8,300 sequences, median “log2 fold change of degron read counts, EGFP-low vs EGFP+ sorted cells (limma voom), compound-induced degradation” near -1.1, cut for the highest 2% near 3.2. The list comes from a sample in which the highest values are over-represented; it also holds close analogues and randomly drawn sequences.
MEASURED_QUANTITY: log2 fold change of degron read counts
API note: the answer field is a bare number with no unit suffix.

Some sequences with recorded log2 fold change of degron read counts:
{"columns": ["SEQUENCE_STRING", "MEASURED_QUANTITY", "MEASURED_RESULT"],
 "data": [
  ["FSCPICGHHFTQKGNLLRHIKL [46F_47S_49P_50I_52G_53H_54H_55F_67L_, Q9UKT9]", "log2 fold change of degron read counts", -1.93],
  ["FKCPICGHLFTQKGNLLRHIKL [46F_47K_49P_50I_52G_53H_54L_55F_67L_, Q9UKT9]", "log2 fold change of degron read counts", -2.43],
  ["FACNQCGHHFTQKGNLLRHIKL [46F_47A_49N_50Q_52G_53H_54H_55F_67L_, Q9UKT9]", "log2 fold change of degron read counts", -2.01],
  ["FFCPICGHAFTQKGNLLRHIKL [46F_47F_49P_50I_52G_53H_54A_55F_67L_, Q9UKT9]", "log2 fold change of degron read counts", -1.29],
  ["FECEICGRSFTQKGNLLRHIKL [46F_47E_49E_50I_52G_53R_54S_55F_67L_, Q9UKT9]", "log2 fold change of degron read counts", -1.32],
  ["FECEICGHPFTQKGNLLRHIKL [46F_47E_49E_50I_52G_53H_54P_55F_67L_, Q9UKT9]", "log2 fold change of degron read counts", -1.68]
]}

Now turn to the next sequence.
Asked: Which measured log2 fold change of degron read counts value corresponds to FACDVCGAQFTQKGNLLRHIKL [46F_47A_49D_50V_52G_53A_54Q_55F_67L_, Q9UKT9] ?
Given back: -1.67
